- System: Human immunodeficiency virus type 1 reverse transcriptase (Human immunodeficiency virus 1)
- Measurement Protocol: Inhibition of DNA polymerase activity of HIV-1 reverse transcriptase (at 50 uM)
Entries annotated with measured Initial activity

Compound	Initial activity
Cc1cc(C)c(S(=O)(=O)Nc2cc(C(=O)O)c(O)c(S(=O)(=O)O)c2)c(C)c1S(=O)(=O)Nc1cc(C(=O)O)c(O)c(S(=O)(=O)O)c1	2%
O=S(=O)(O)c1ccc2c(OS(=O)(=O)c3cccc4c(S(=O)(=O)Oc5cc(S(=O)(=O)O)cc6cc(S(=O)(=O)O)ccc56)cccc34)cc(S(=O)(=O)O)cc2c1	0%

What value of measured Initial activity is listed for Cc1cc(C)c(S(=O)(=O)Oc2ccc3cccc(S(=O)(=O)O)c3c2)c(C)c1S(=O)(=O)Oc1ccc2cccc(S(=O)(=O)O)c2c1 ?
13%

Record request: Initial activity value, item Nc1ccc(S(=O)(=O)O)c2ccccc12
100%

Give its Initial activity value. Item: O=C(O)c1cc(NS(=O)(=O)c2cccc3c(S(=O)(=O)Nc4cc(C(=O)O)c(O)c(S(=O)(=O)O)c4)cccc23)cc(S(=O)(=O)O)c1O
46%

Give the measured Initial activity of CCCCCCCCCCCCCCCC(=O)Nc1ccc(S(=O)(=O)O)c2ccccc12 .
100%

Fill in the blank: the reported Initial activity of O=S(=O)(O)c1cccc2ccc(OS(=O)(=O)c3cccc4c(S(=O)(=O)Oc5ccc6cccc(S(=O)(=O)O)c6c5)cccc34)cc12 is ____.
25%

Entry source: ChEMBL document CHEMBL1127605
